# method summary: physchem
# measurement setup: octanol/water
So I've got a bunch of molecules here, and I need their logD values.
API note: the answer field is a bare number with no unit suffix.

Which logD reading was recorded for the molecule "CON(C)C(=O)c1c(Cn2c(C)nc(Cl)c2Cl)sc2c1c(=O)n(C)c(=O)n2CC(C)C" ?
2.3

Quick one: "CC(C)Cn1c(=O)n(C)c(=O)c2c(C(=O)N3CC[C@@H](O)C3)c(Oc3cccc4ccccc34)sc21"
2.9

Quick one: "CC(C)Cn1c(=O)n(C)c(=O)c2c(C(=O)N3CC[C@@H](O)C3)c(Cc3ccnc4ccc(F)cc34)sc21"
2

Quick one: "CC(C)Cn1c(=O)n(C)c(=O)c2c(C(=O)N3C[C@H](O)CO3)c(Cc3c[nH]c4ncccc34)sc21"
2

Quick one: "CC(C)Cn1c(=O)n(C)c(=O)c2c(C(=O)N3C[C@H](O)CO3)c(Cc3ccccc3C(F)(F)F)sc21"
3.2

Quick one: "Cc1n[nH]c(C)c1Cc1sc2c(c1C(=O)N1C[C@H](O)CO1)c(=O)n(C)c(=O)n2CC(C)C"
1.1

Quick one: "CC(C)n1c(=O)n(C)c(=O)c2c(C(=O)N3CCS(=O)(=O)C3)c(Cc3ccccc3C(F)(F)F)sc21"
2.6

Quick one: "CNc1nc2ccccc2n1Cc1sc2c(c1C(=O)N1C[C@H](O)CO1)c(=O)n(C)c(=O)n2CC(C)C"
1.8

###

# method summary: Solubility of the compound
# Assay type: physicochemical
observed property: solubility (µg/mL)
A number alone suffices; assume µg/mL.

Which solubility reading was recorded for the compound "CC(C)Cn1c(=O)n(C)c(=O)c2c(C(=O)N3CC[C@@H](O)C3)c(Cc3ccnc4ccccc34)sc21" ?
500

Quick one: "Cc1n[nH]c(C)c1Cc1sc2c(c1C(=O)N1C[C@H](O)CO1)c(=O)n(C)c(=O)n2CC(C)C"
2900
